Tested on: OVCAR-8 ovarian
Test: NCI tumour cell line growth inhibition, 48 h
Exercise: for every item that follows, state its recorded TGI.

input: Name the reported TGI value associated with the compound "COc1ccc([N+](=O)[O-])cc1[I+]c1cc([N+](=O)[O-])ccc1OC"
output: > 100 µM

input: And the next one, "N#CCCN(CCC#N)c1ccc(/C=C2\N=C(c3ccccc3)N(NC(=O)c3ccncc3)C2=O)cc1" ?
output: > 100 µM

input: And the next one, "Cn1cc(-c2ccc3c(c2)ncn3-c2ccc(CC(=O)Nc3cc(C(C)(C)C)on3)cc2)cn1" ?
output: > 43.3 µM

input: And the next one, Nc1ncn([C@@H]2C=C(CO)C(O)C2O)c(=O)n1 (stereo partly drawn) ?
output: > 100 µM

input: And the next one, "c1ccc(COc2ccc(Nc3ncnc4ccc(-c5ccco5)cc34)cc2)cc1" ?
output: > 25 µM

input: And the next one, "Cc1[nH]c2ncn(N)c(=N)c2c1Cc1ccccc1" ?
output: > 100 µM

input: And the next one, "COc1cccc2c(=O)c3c(O)c4cc(N(C)C)ccc4c(OC(C)=O)c3oc12" ?
output: 37.4 µM

input: And the next one, CCOC(=O)C(NC(=O)Nc1ccccc1F)(OC)C(F)(F)F (stereo not drawn) ?
output: > 100 µM

---

System: DLD-1 colon
Assay: NCI tumour cell line growth inhibition, 48 h
Measured Property: TGI (µM)
Could you give me the number in µM? Just the number is fine.

input: Item "CC[n+]1c(/C=C/c2ccc(N(CCCl)CCCl)cc2)ccc2cc(Br)ccc21" with DLD-1 colon - TGI?
output: 16.1

input: And the next one, CC(C)=CCC/C(C)=C/CC/C(C)=C/C(O)c1ccccc1 (configuration not stated) ?
output: 34.4

input: And the next one, "CCOC(=O)C1=C(O)CSC1=Nc1ccc(N=C2SCC(O)=C2C(=O)OCC)cc1" ?
output: 50.4

input: And the next one, "O=C1/C(=C/c2ccccc2Cl)COc2ccccc21" ?
output: 29.4

---

Tested on: MCF7 breast
Assay: NCI tumour cell line growth inhibition, 48 h
Parameter threshold = 20 µM. Response is MET when TGI meets or exceeds it, else NOT MET.

input: Determine whether this compound has TGI no lower than 20 µM: O=C(CC(C(=O)c1ccsc1)c1cccs1)c1ccsc1 (stereo not given)
output: MET

input: And the next one, "COc1ccc2c(c1)C(=O)/C(=C/c1ccc(OCC(=O)c3ccc(Cl)cc3)cc1)O2" ?
output: MET

input: And the next one, "Cn1cc(-c2nonc2-c2cn(C)c3ccc(Br)cc23)c2ccccc21" ?
output: MET

input: And the next one, CC(=O)NC1C(OCc2ccccc2)OC(CO)C(O)C1OCC(=O)NC(C)C(=O)NC(CCC(=O)Nc1ccc2c(c1)CN1C(=O)c3ccccc3C1=N2)C(N)=O (stereo not given) ?
output: MET

input: And the next one, COc1ccc(-c2c(C(=O)Nc3ccccc3)c(-c3ccccc3)n(C3OC(CO)C(O)C(O)C3O)c(=S)c2C#N)cc1 (stereo not given) ?
output: MET

input: And the next one, "O=Cc1cc(O)ccc1Br" ?
output: MET

input: And the next one, "[N-]=[N+]=NC1=C(N=[N+]=[N-])c2cccc3cccc(c23)C1=O" ?
output: MET

input: And the next one, "CSc1nc2ccccc2c(=O)n1-c1cccc(C)c1" ?
output: MET

input: And the next one, "C[C@@H](Oc1cc(-n2cnc3ccc(OCC4CCN(C)CC4)cc32)sc1C(N)=O)c1ccccc1C(F)(F)F" ?
output: NOT MET

input: And the next one, COc1ccc(C2=NN(c3ccc(S(N)(=O)=O)cc3)C(c3ccc(Cl)cc3)C2)c(O)c1 (stereo not given) ?
output: NOT MET

input: And the next one, "O=C1C(c2c(O)n(-c3ccccc3)c3ccccc23)=Nc2ccccc21" ?
output: MET

input: And the next one, "COC(=O)/C=C(\S/C(=C(/c1ccccc1)n1cc(C(=O)OC)c(C(=O)OC)n1)c1ccccc1)C(=O)OC" ?
output: MET

input: And the next one, "CSc1ccc(C=C2N=C(c3ccccc3)N(c3cc(C(=O)c4ccccc4)ccc3N3C(=O)/C(=C/c4ccc(SC)cc4)N=C3c3ccccc3)C2=O)cc1" ?
output: MET

input: And the next one, CC1(c2nc3ccccc3[nH]2)CCC(CO)C(C)(C)O1 (stereo not given) ?
output: MET

input: And the next one, O=C(O)C1CCCCN1CCc1c[nH]c2ccccc12 (stereo not given) ?
output: MET

input: And the next one, C=C(CNCCc1ccc(O)cc1)[C@@H]1CC[C@]2(CO)CC[C@]3(C)[C@H](CC[C@@H]4[C@@]5(C)CCC(NCCO)C(C)(C)[C@@H]5CC[C@]43C)[C@@H]12 (stereo not given in full) ?
output: NOT MET

input: And the next one, "c1ccc(CNc2nc(Nc3ccc(-c4nc5ccccc5[nH]4)cc3)c3cn[nH]c3n2)cc1" ?
output: NOT MET

input: And the next one, COc1cc([C@@H]2c3cc4c(cc3[C@@H](N=Cc3ccc(C(=O)O[C@H]5C[C@H]6OC[C@@]6(OC(C)=O)[C@H]6[C@H](OC(=O)c7ccccc7)[C@]7(O)C[C@H](OC(=O)[C@H](OC(=O)c8ccc(C=N[C@@H]9c%10cc%11c(cc%10[C@@H](c%10cc(OC)c(O)c(OC)c%10)[C@H]%10C(=O)OC[C@@H]%109)OCO%11)cc8)[C@@H](NC(=O)c8ccccc8)c8ccccc8)C(C)=C([C@@H](OC(C)=O)C(=O)[C@]56C)C7(C)C)cc3)C3COC(=O)C32)OCO4)cc(C)c1O (stereo not given in full) ?
output: MET

input: And the next one, "COc1ccc([N+](=O)[O-])cc1[I+]c1cc([N+](=O)[O-])ccc1OC" ?
output: MET

input: And the next one, CCOP(=O)(OCC)OC1CC(n2cnc3c(N(CC)CC)ncnc32)OC1CO[Si](C)(C)C(C)(C)C (stereo not given) ?
output: MET
